Source: the kinase profiling compilation of Christmann-Franck et al. (2016)

Attribute: residual activity
# target.of.assay: EEF2K (human)
# experimental.protocol: radiometric filter-binding kinase assay
# test.settings: compound 10.0 µM
The reply should contain only the number, in %.

Examples with answers:
O=C(NOC[C@H](O)CO)c1ccc(F)c(F)c1Nc1ccc(I)cc1Cl :: 93
COc1cc(C(=O)N2CCOCC2)c(F)cc1Nc1ncc(C(F)(F)F)c(NC2CC2)n1 :: 107
Cc1ccc2c(c1)C(=O)[C@@]1(O)CCN(c3ccccc3)C1=N2 :: 83
CCNc1nc(Nc2cc(F)c(C(=O)N3CCOCC3)cc2OC)ncc1C(F)(F)F :: 107
CNc1nc(-c2ccc3c(N)n[nH]c3c2)cc(N2C[C@@H](C(=O)NC3CCCCC3)CC[C@H]2C)n1 :: 100

// query residual activity value for entry CCCC(CCC)C(=O)O
61

Item: CCc1cncnc1N1CCN(Cc2nc3cc(C(F)(F)F)ccc3[nH]2)CC1
78

Item: O=C1NC(=S)N[C@@H]1Cc1c[nH]c2ccccc12
85

Item: O=C1Nc2nc(-c3c(O)cccc3OCC3CC3)cc(C3CCCNC3)c2CO1 (stereo unspecified)
67

Item: CCCCCc1ccc(/C=C/[C@H](O)[C@@H](CO)NC)cc1
69

Item: Cn1nc(Nc2ccc(F)cc2)c2c(N)ncnc21
103
